Each entry below carries its recorded ECL signal/blank ratio (read-out not given).
- SYSTEM_TESTED: T1, rHuman CD44/Fc Chimera, CF (R&D Systems Cat#3660-CD) (human, UniProt P16070 21-220)
- T1 construct: Bought recombinant protein; Fc part of the bought chimera not given
- ASSAY_NAME: ECL multispot (MSD) assay, antigen spotted on plate, 20 nM Fab;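 further: purified Fab bound to plate-spotted antigen for 1 h at 20 °C, labelled detection antibody added, ratio of antigen ECL signal to same-well blank, ratio ≥4 counted as binder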
Field format: numeric only.

query: May I ask what ECL signal/blank ratio (read-out not given) has been recorded for Fab VH3-23_IGHD2-21*01>3_IGHJ6*01 H100E/S108P/Y113G Y60A & V2-13_IGLJ2*01 (Fab, V domains shown, Tested as a Fab made in E. coli; also called EPG Y60A) VH: EVQLLESGGGLVQPGGSLRLSCAASGFTFSSYAMSWVRQAPGKGLEWVSSISGSGGSTYAADSVKGRFTISRDNSKNTLYLQMNSLRAEDTAVYYCAKEEIVVVIAIPYYYYGYGMDVWGQGTLVTVSS VL: SSELTQDPAVSVALGQTVRITCQGDSLRSYYASWYQQKPGQAPVLVIYGKNNRPSGIPDRFSGSSSGNTASLTITGAQAEDEADYYCNSRDSSGNHLVVFGGGTKLTVL ?
result: 1.5

query: // same read-out, input: Fab VH3-23_IGHD2-21*01>3_IGHJ6*01 H100E/S108P/Y113G A61T & V2-13_IGLJ2*01 (Fab, V domains shown, Tested as a Fab made in E. coli; also called EPG A61T) VH: EVQLLESGGGLVQPGGSLRLSCAASGFTFSSYAMSWVRQAPGKGLEWVSSISGSGGSTYYTDSVKGRFTISRDNSKNTLYLQMNSLRAEDTAVYYCAKEEIVVVIAIPYYYYGYGMDVWGQGTLVTVSS VL: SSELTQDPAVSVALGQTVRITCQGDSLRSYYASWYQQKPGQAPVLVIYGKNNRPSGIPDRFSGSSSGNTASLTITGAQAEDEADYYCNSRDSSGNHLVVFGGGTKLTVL
result: 2

query: Input Fab VH3-23_IGHD2-21*01>3_IGHJ6*01 H100E/S108P/Y113G D62A & V2-13_IGLJ2*01 (Fab, V domains shown, Tested as a Fab made in E. coli; also called EPG D62A) VH: EVQLLESGGGLVQPGGSLRLSCAASGFTFSSYAMSWVRQAPGKGLEWVSSISGSGGSTYYAASVKGRFTISRDNSKNTLYLQMNSLRAEDTAVYYCAKEEIVVVIAIPYYYYGYGMDVWGQGTLVTVSS VL: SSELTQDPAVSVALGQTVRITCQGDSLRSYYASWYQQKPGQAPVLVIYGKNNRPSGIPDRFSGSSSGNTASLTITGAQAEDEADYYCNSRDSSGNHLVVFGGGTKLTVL
result: 2

query: Query Fab VH3-23_IGHD2-21*01>3_IGHJ6*01 H100E/S108P/Y113G T58A & V2-13_IGLJ2*01 (Fab, V domains shown, Tested as a Fab made in E. coli; also called EPG T58A) VH: EVQLLESGGGLVQPGGSLRLSCAASGFTFSSYAMSWVRQAPGKGLEWVSSISGSGGSAYYADSVKGRFTISRDNSKNTLYLQMNSLRAEDTAVYYCAKEEIVVVIAIPYYYYGYGMDVWGQGTLVTVSS VL: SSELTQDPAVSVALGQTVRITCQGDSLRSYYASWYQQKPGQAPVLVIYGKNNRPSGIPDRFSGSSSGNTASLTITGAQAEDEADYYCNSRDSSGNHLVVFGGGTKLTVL next
result: 1.5

query: What do you have for Fab VH3-23_IGHD2-21*01>3_IGHJ6*01 H100E/S108P/Y113G Y59A & V2-13_IGLJ2*01 (Fab, V domains shown, Tested as a Fab made in E. coli; also called EPG Y59A) VH: EVQLLESGGGLVQPGGSLRLSCAASGFTFSSYAMSWVRQAPGKGLEWVSSISGSGGSTAYADSVKGRFTISRDNSKNTLYLQMNSLRAEDTAVYYCAKEEIVVVIAIPYYYYGYGMDVWGQGTLVTVSS VL: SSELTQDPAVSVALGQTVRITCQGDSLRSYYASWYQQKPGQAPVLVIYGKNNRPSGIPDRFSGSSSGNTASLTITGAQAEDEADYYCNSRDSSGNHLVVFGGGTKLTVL ?
result: 1.4
